These entries and their values trace back to patent US10940139B2.

Target: KRas G12D/Q61H double mutant (Homo sapiens (Human), UniProt P01116, G12D/Q61H)
Sequence (P01116-2 other isoform, or with tags, fused parts or gaps G12D/Q61H): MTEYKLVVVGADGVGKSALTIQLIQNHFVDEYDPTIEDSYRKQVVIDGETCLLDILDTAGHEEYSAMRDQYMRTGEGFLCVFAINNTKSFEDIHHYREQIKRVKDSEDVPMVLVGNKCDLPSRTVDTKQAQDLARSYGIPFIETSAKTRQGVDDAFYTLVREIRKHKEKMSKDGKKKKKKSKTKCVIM
Test: Ras GTP binding domain inhibition assay (labeled GTP)
Details: 20 μM compound; read-out: % Inhibition at 20 μM KRas G12D Q61H
Task for the reader: assign each of the following molecules its reported inhibition at 20 µM.

Sure, the documented inhibition at 20 µM for COc1ccc(F)cc1-c1csc2c(O)nc(-c3ccccn3)nc12 [drawing 2874] is 51 to 75%

Sure, the documented inhibition at 20 µM for `O=C(Cc1ccc(OC(F)(F)F)cc1)Nc1nnc(-c2ccccn2)[nH]1` is 25 to 50%

Sure, the documented inhibition at 20 µM for CCN(CC)CCC(C)Nc1nc(-c2ccccn2)nc2sccc12 (stereo not drawn) [drawing 2706] is 25 to 50%

Sure, the documented inhibition at 20 µM for `CCN1CCN(c2nc(-c3ccccn3)nc3sc(-c4ccccc4)cc23)CC1` is 25 to 50%

Sure, the documented inhibition at 20 µM for `CC(C)Cc1noc(CNc2cc(C(F)(F)F)ccc2N2CCCC2)n1` is 25 to 50%

Sure, the documented inhibition at 20 µM for O=C(c1cc(-c2ccccc2)nc2ccccc12)N1N=CCC1(O)C(F)(F)F (stereo not drawn) is 25 to 50%

Sure, the documented inhibition at 20 µM for COCCOCCN(C)C(=O)c1csc2c(O)nc(-c3ccccn3)nc12 [drawing 2686] is 51 to 75%

Sure, the documented inhibition at 20 µM for O=C(c1csc2c(O)nc(-c3ccccn3)nc12)N1CCN(c2cccc(Cl)c2)CC1 [drawing 2719] is 25 to 50%

Sure, the documented inhibition at 20 µM for N#Cc1ccc(N2CCN(C(=O)c3csc4c(O)nc(-c5ccccn5)nc34)CC2)cc1 [drawing 2756] is 0%
